System: LXRb homodimer (NR concentration 270 nM)
procedure_text: PBM binding z-score (relative to random genomic background probes); higher = stronger binding; sequences stand for … in GC…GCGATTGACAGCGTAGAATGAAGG
outcome_measure: PBM binding z-score
Just the number, please, no unit attached.

Record request: PBM binding z-score value, item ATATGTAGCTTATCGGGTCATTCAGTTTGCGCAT
1.08

Look up PBM binding z-score: CGTCCAAGGTCAAGGGTCAGTGAAGAGATGACGG
0.392

For GCTGCTAGGTCAGTTTGGTCAGCTAACGGGTACG , what is its reported PBM binding z-score?
0.134

Param item = CTCGAAAGGTCGGTTGAGGTGAGAATACGGATAA ; retrieve measured PBM binding z-score.
0.119

Fill in: PBM binding z-score of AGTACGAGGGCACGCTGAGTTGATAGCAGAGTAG is ___
-0.497

// PBM binding z-score lookup, key: TCATAGAGGTAAAGGTGAAAGTCGAACGATATGA
-0.862

Form field: reported PBM binding z-score of CCTAGCAGGCCAGGGTCACTTAAGCATTTCGCTT
-1.39

For the sequence shown here, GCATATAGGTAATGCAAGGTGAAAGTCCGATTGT , give the reported PBM binding z-score.
-0.489

Would you kindly share the measured PBM binding z-score for AGTCAAAGTTCATGACGAGGTAACGTAAAGCACG ?
0.691

Please report the recorded PBM binding z-score for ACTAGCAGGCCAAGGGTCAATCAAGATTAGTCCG .
-0.379

What does the record list as PBM binding z-score for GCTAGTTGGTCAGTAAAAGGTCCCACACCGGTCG ?
-0.39

Request the reported PBM binding z-score associated with AGTCAAAGTTCAGGACGAAGTAACGTAAAGCACG
0.274

Given the entry TCTTGTAGATCAGCAGATTAAGAAAGCTGGCCAA , report its measured PBM binding z-score.
-0.494

Consider the sequence CCTTACGGGGCACTCCAGGTTATAGCATCGGAGT and give its measured PBM binding z-score.
-0.636

Name the reported PBM binding z-score value associated with the sequence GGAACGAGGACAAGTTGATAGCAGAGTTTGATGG
-0.685

Reported PBM binding z-score for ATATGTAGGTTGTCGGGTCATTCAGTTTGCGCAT : what is it?
0.953

# get_value(readout='PBM binding z-score', item= ATATGTAGGTTATAGGGTCATTCAGTTTGCGCAT )
1.38

Name the recorded PBM binding z-score for GCTTACGGGTCAGAGGTTATAGCATGAATAGAAT .
0.261

Quick one: PBM binding z-score of ACTATTAGTCGACTTAGGGCAACCGATACGACGC ?
0.47

Which measured PBM binding z-score value corresponds to CTCGAAAGGTCGTGCTCAGGTGAGTATACCAAAC ?
0.379

Looking for the measured PBM binding z-score of TCATATAGGTAAAAGGTGAATGTCGGTGTGGTAA , can you help?
0.156

Report PBM binding z-score for GCGACTGGGGCAAAGCAGGTTATCATAAGGTTGG please.
-0.831

Quick check: PBM binding z-score of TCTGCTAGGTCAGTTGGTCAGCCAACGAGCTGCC ?
-0.0137

Returns the measured PBM binding z-score for the input sequence. Input: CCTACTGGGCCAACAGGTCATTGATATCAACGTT
-0.204

Look at this sequence and give its reported PBM binding z-score. GCGACTGGGGCAAAGCAGGTTACCACAAGGTTGG
-1.07

Which PBM binding z-score value belongs to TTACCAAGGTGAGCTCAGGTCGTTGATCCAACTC ?
-1.08

Need PBM binding z-score of TCTTGGAGGACACGAAGGTCAGAGCTTTCCAGAG , thanks.
-0.69

Entry CGTCAAAGTTCAACTAAGGTAAGGTAAAGCACGC has what PBM binding z-score?
1.73

Which PBM binding z-score is reported for this sequence? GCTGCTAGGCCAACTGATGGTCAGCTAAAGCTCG
-1.01

Value lookup for PBM binding z-score; key = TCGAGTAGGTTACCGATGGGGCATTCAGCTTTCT
-0.864

For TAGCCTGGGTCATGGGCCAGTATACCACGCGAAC , what is its reported PBM binding z-score?
-0.671

Any idea what its PBM binding z-score is? The sequence is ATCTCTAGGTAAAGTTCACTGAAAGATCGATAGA
1.29

// PBM binding z-score lookup, key: TCTCGGAGGACACGAAAGGTCAGAGATCGACATC
0.0145

// PBM binding z-score lookup, key: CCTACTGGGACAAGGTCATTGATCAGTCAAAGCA
0.0323

PBM binding z-score lookup needed for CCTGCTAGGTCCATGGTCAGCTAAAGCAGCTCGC , thanks.
-0.563

Quick check: PBM binding z-score of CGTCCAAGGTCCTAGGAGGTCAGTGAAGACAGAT ?
-0.518

Quick check: PBM binding z-score of AGAACGAGGGCAATGAGTGGATAGCACGGGTGGC ?
-0.905

Look up PBM binding z-score for this sequence: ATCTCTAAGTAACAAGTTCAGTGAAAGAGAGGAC
0.901

// lookup PBM binding z-score for ACTAGCAGGTCAAGTTTGGGTCACTCAAACAAAG
1.28

Endpoint output: PBM binding z-score of TCAGACATGTGAAGGTAACTCAGGTACGCAGTCG . Value?
-0.43

Which PBM binding z-score value is on record for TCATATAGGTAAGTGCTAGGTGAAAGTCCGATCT ?
0.122

What value of PBM binding z-score has been reported for the following sequence? TCTGCTAGGTCAGTTGATCAGCTAACGAGCTGCC
-0.0241

Param item = CCGACTGGGGCAAAGGTTGCCATACTCAGTACGA ; retrieve measured PBM binding z-score.
-1.06

* * *

System: PPARg:RXRa (NR concentration 180 nM, RXRa partner concentration 90 nM)
procedure_text: PBM binding z-score (relative to random genomic background probes); higher = stronger binding; sequences stand for … in GC…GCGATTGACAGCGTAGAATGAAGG
Quick rule: PBM binding z-score of at least 2 means y, below that means n.

Could you tell me if the measured PBM binding z-score of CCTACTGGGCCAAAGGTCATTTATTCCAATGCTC reaches 2 or more?
y

Form field: PBM binding z-score at least 2? Entry: TCTCGGAGGACACGGAAGGTCAGAGCTCGACATC
n

Tell me whether PBM binding z-score is at least 2 here: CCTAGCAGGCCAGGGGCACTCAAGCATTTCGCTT
n

Check this sequence for PBM binding z-score at or above 2: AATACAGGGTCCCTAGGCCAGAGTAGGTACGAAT
n

Can CCTACTGGGCCGTCAGGTCATTGATATCAACGTT be said to have PBM binding z-score at or above 2?
n

Determine whether measured PBM binding z-score meets or exceeds 2 for ATACCAAGGTGATCGTGAAGTCGTTGATACTAAC
n

Check this sequence for PBM binding z-score at or above 2: CAAACTAGGTCACGAAAGGTCAATGTCGAATGAC
y

Does PBM binding z-score meet or surpass 2 for ACTTACGGGTCAACAAGGTTATAGCACGCGTATA ?
y

# bool: PBM binding z-score of ACTAGTTGATCAGCTGAGGTCACACACAATTCGG >= 2
n

Record ATCGATAGGTCGACGAGGTGAGTATACACCGTTT ; criterion: PBM binding z-score no lower than 2. Met?
n

Quick check, PBM binding z-score >= 2? CAAACTAGGTCACCGGAAGGTCAACGTCCGCATG
y

Could you tell me if the measured PBM binding z-score of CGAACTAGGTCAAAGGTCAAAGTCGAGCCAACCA reaches 2 or more?
y

Tell me whether PBM binding z-score is at least 2 here: ATCTCTAGGTAAGACTCCGTTCAGTGAAGAACGC
n

# bool: PBM binding z-score of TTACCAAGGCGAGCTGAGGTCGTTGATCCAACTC >= 2
n

Please indicate if the recorded PBM binding z-score for ATCGAAAGTTCGTGAGGTGAGTATACAGAAAGGC meets or exceeds 2.
n

Exam item: decide whether the reported PBM binding z-score for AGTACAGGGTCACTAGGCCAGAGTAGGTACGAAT is at least 2.
y

For this sequence, is measured PBM binding z-score 2 or higher? TCTAGTTGGTCACGGAGGTCACACCCGACGGGTA
y

Could you verify whether the entry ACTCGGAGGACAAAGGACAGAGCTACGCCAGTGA shows PBM binding z-score of no less than 2?
n

Quick check: does AGAACGAGGGCACGGTGAGTTGATAGCAGAGTAG have PBM binding z-score greater than or equal to 2?
y

Is PBM binding z-score at least 2? Consider ACTTACGGGTCAACGAGGTTACAGCACGCGTATA
y

For this sequence, is measured PBM binding z-score 2 or higher? GATAGAGGGTCAGCTAGAGGCCAGAGTATGGAAA
y

Does ATCGAAAGGTCGTGAGTTGAGTATACAGAAAGGC have a reported PBM binding z-score of at least 2?
y

For this sequence, is measured PBM binding z-score 2 or higher? ACTAGCAGGCCAGGTTTGGGTCACTCAAACAAAG
n

Is reported PBM binding z-score greater than or equal to 2 here: CTCGAAAGGTCGGTTGAAGTGAGTATACGGATAA
n

Given TCTGCTAGGTCAGTTGGTCCGCTAACGAGCTGCC , state whether its PBM binding z-score is at least 2.
n

Item AATACAGGGTCACTAGGCGAGAGTAGGTACGAAT with PBM binding z-score of 2 or above?
y

Does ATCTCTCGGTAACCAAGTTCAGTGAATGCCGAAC have a reported PBM binding z-score of at least 2?
n

Assess whether reported PBM binding z-score for TGATATAGGTAAAGGTGAAAGTCGAACGATATGA sits at 2 or higher.
y

Reported PBM binding z-score reaches at least 2 for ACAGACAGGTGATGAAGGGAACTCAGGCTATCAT ?
n

Is reported PBM binding z-score greater than or equal to 2 here: CCTAGTGGGCCATCAGGTCATTGATATCAACGTT
y

Item CCTAGCGGGCCAATCTGGGTCACTCAAGGCTTGA with PBM binding z-score of 2 or above?
n

Does PBM binding z-score meet or surpass 2 for TCATATAGGTAAATGCTAGGTGAAACTCCGATCT ?
n

Reported PBM binding z-score at or above 2? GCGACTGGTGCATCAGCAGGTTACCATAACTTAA
n

# bool: PBM binding z-score of AGTCAAGGTTCATCTAGGTAACGTAAGATATGCT >= 2
y

Determine whether measured PBM binding z-score meets or exceeds 2 for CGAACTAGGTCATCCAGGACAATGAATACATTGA
y

Please tell me: is the sequence CCTACTGGGCCATCAGGTCATTGACATCAACGTT at or over 2 in terms of PBM binding z-score?
y

Reported PBM binding z-score reaches at least 2 for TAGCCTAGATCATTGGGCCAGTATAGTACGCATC ?
n

Check if PBM binding z-score >= 2 (inclusive). Item: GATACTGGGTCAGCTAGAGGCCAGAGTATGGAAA
y

Could you verify whether the entry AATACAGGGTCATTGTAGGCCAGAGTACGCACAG shows PBM binding z-score of no less than 2?
y
